Test: physchem
Conditions: water
Assay Metric: solubility

Request: Using the record for CCCCCCCCn1sccc1=O , report its solubility.
Response: 500 µg/mL

* * *

Assay: Water solubility of the isothiazolones
Details: water
Assay Metric: solubility (µg/mL)
Just the number in µg/mL, nothing appended.

Request: What measured solubility goes with CCCCCCCCn1sc(Cl)c(Cl)c1=O ?
Response: 14

* * *

Assay: Water solubility of the isothiazolones
Conditions: water, Water Solubility, Example 3 table head
Assay Metric: solubility (µg/mL)
Kindly answer with a numeric value in µg/mL, unit omitted.

Request: Recorded solubility for O=c1c(Cl)c(Cl)sn1C1CCCCC1 , please?
Response: 42

* * *

Assay: Water solubility of the isothiazolones
Settings: water, Water Solubility, Example 1 table
Assay Metric: solubility (mg/mL)
Express it in mg/mL; write the number only.

Request: Dear colleague, I am looking for the recorded solubility of the following compound: O=c1c(Cl)c(Cl)sn1C1CCCCC1 [B]
Response: 0.04

Reference source for all entries: patent US4505889A
